Values were extracted from paper PMC10065799.

Provide the reported Screen of each item.
# experimental.target: c-Src kinase domain (Homo sapiens, UniProt P12931)
# experiment.description: pTyr-Var library bacterial peptide display kinase screen (enrichment scores);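 also: log2 fold change in enrichment of variant over reference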
# Type: biochemical
# reported.conditions: sheet "Src"; effect of the variant peptide relative to its reference peptide in the pTyr-Var library screen
Give bare numbers.

# annotated cases, reported Screen shown
PIFLFYLMDLS [ITGB2_Y131_D128Y_YF] :: -0.3916
SCPANYFAFKI [FAM3D_Y65_P60S] :: -0.7557
SDMGQYQCLVF [AXL_Y115_T112M] :: 0.2602
FAELMYTGFWH [ASS1_Y322_V321M] :: -0.1313
FGCGMYSHLQG [LGR4_Y848_D844G_YF] :: -0.3661

Please go through the list and note Screen for each sequence.
1. LADKPYTFEFF [FXN_Y118_D122Y_YF]
2. DSNLIYSQIWS [FCRL3_Y662_P660L]
3. LGQRIYQFIRS [DYRK1B_Y271_Q275R_YF]
4. LPEENYQVLCF [ARHGAP1_Y365_R369C]
5. GESLTYVSTTF [C1orf162_Y120_A121V]

Ans:
[-0.4395, -0.2629, -0.5682, 2.107, -2.006]

Please go through the list and note Screen for each sequence.
1. NIEPIYLNMLL [ATR_Y317_V316I]
2. SPPILYSFFLN [FCRL6_Y239_D244N_YF]
3. ANAFIYDVQLP [L1CAM_Y420_V421D_YF]
4. VNFDFYTVNLG [GFPT1_Y367_D366Y_YF]
5. LENSTYQFICV [CRB1_Y760_R764C_YF]

Ans:
1: 0.03812; 2: 0.0865; 3: 2.894; 4: 0.9419; 5: -1.066

Please go through the list and note Screen for each sequence.
1. NEKNIYGVPLM [BMPR2_Y247_R248G]
2. LIFVSYDDWDF [GRIN2A_Y281_S278F_YF]
3. ITNLLYHVVSW [GBA_Y412_G416S]
4. DSFATYFRWVL [H2BW1_Y84_R87W]
5. EAVSIYQFFGQ [CBLC_Y402_H405Y_YF]
6. FVFSFYHAFSG [ACTN4_Y265_S262F_YF]

Ans:
[1.983, 0.7047, -0.28, 2.683, -0.1267, -2.513]

Please go through the list and note Screen for each sequence.
1. RGDCMYASLLG [AR_Y269_P271S]
2. LERFIYNRQEF [HLA-DPB1_Y59_E62Q_YF]
3. GNLLIYTDFGK [HGD_Y166_E168D]
4. LASLIYNFILF [AQP6_Y231_V234I]
5. AEDKPYAELWT [MPI_Y46_M51T]
6. FSTPPYLLEAA [BRIP1_Y921_S919P_YF]

Ans:
[0.07196, -1.248, -0.3604, 0.7887, -0.4439, -1.274]
